assay: in vitro; set-up: Viability of infected HeLa host cells, resazurin conversion, bulk resorufin fluorescence relative to DMSO; settings: human, hela cells; bulk resorufin, mean of 2
value-kind: viability at 28.5 h, 10 µM (%)
Enter your answer as a number in %; do not include the unit.

The compound "CN(C)CCNc1nc(-c2ccc(Cl)cc2)nc2ccccc12" showed viability at 28.5 h, 10 µM equal to 94.4

The compound O=C(Nc1nccs1)c1cc(C2CCN(C(=O)CC3CCCCC3)C2)nc2ccccc12 (stereo not drawn) showed viability at 28.5 h, 10 µM equal to 93.3

The compound Cc1c(C(=O)Nc2ccc(Cl)cc2)sc2c1C(c1cccnc1)CC(=O)N2 (stereo not drawn) showed viability at 28.5 h, 10 µM equal to 97.1

The compound "OCCn1ncc2c(NCc3cccc(Cn4ccnc4)c3)ncnc21" showed viability at 28.5 h, 10 µM equal to 92.4

The compound CC(Nc1cc(N2CCN(CCO)CC2)ccc1[N+](=O)[O-])c1ccc(Br)cc1 (stereo not drawn) showed viability at 28.5 h, 10 µM equal to 96.3

The compound "Clc1ccc2nc(-c3ccccn3)[nH]c2c1" showed viability at 28.5 h, 10 µM equal to 104

The compound "O=C(NCCCn1ccnc1)c1cc(-c2cccc(Br)c2)nc2ccccc12" showed viability at 28.5 h, 10 µM equal to 116

The compound "O=C(NCCNCCNC(=O)C1(c2ccccc2)CCCC1)C1(c2ccccc2)CCCC1" showed viability at 28.5 h, 10 µM equal to 89.5

The compound "COc1cccc(C(=O)N2CCC(Cc3ccc(-c4cccc(C)c4)cc3)(C(N)=O)CC2)c1" showed viability at 28.5 h, 10 µM equal to 90.2

The compound CN1CCCN(c2cc(C(F)(F)F)c3scc(C(=O)NCc4cccc(F)c4F)c3n2)CC1 [CBK036386T] showed viability at 28.5 h, 10 µM equal to 101

The compound CC1CC(C)CN(Cc2csc(NC(=O)Cc3ccc(Cl)cc3)n2)C1 (stereo not drawn) showed viability at 28.5 h, 10 µM equal to 86

The compound "Nc1ccc(C(=O)Nc2ccc(-c3nc4ccc(NC(=O)c5ccc(N)cc5)cc4[nH]3)cc2)cc1" showed viability at 28.5 h, 10 µM equal to 103

The compound O=[N+]([O-])c1ccc2[nH]c3c(c2c1)CCCC3NC1CCN(CCc2ccccc2)CC1 (stereo not drawn) showed viability at 28.5 h, 10 µM equal to 76.1

The compound "CNC(=S)N1CCN(c2nsc3ccccc23)CC1" showed viability at 28.5 h, 10 µM equal to 101

The compound "COCCCNS(=O)(=O)c1ccc(-n2ncc(Cl)c(Cl)c2=O)cc1" showed viability at 28.5 h, 10 µM equal to 0

The compound CCCn1c(NC(=O)C(C)Oc2ccc(Cl)cc2Cl)nc2ccccc21 (stereo not drawn) showed viability at 28.5 h, 10 µM equal to 89.7

The compound "Cc1cccc(-c2ccc(CC3(C(N)=O)CCN(C(=O)CCc4ccccc4)CC3)cc2)c1" showed viability at 28.5 h, 10 µM equal to 106

The compound "O=[N+]([O-])c1cc([N+](=O)[O-])c2cccnc2c1NNc1nncc2ccccc12" showed viability at 28.5 h, 10 µM equal to 86.6
